- test_description: Effect of different intervals between administration and a meal on pharmacokinetic parameters (three-period crossover, single oral dose)
- Assay type: in vivo, human
- study_conditions: male, human, plasma, po, 7.5 mg, single oral 7.5 mg; Group C, high-fat meal 2 h after administration; N = 14; read-out: Vz/F Geomean (% CVb)
- Experimental: Embodiment 1: Study on an effect of different intervals between the administration and a meal on pharmacokinetic parameters of a compound represented by Formula I […] The high-fat meal: calories: 800 to 1,000 kcal, composed of 150 kcal of protein, 250 kcal of carbohydrates and 500 to 600 kcal of fats, wherein about 50% of the calories come from the fats. […] An effect of food on the medicine was analyzed by sampling blood at fixed time points before and after administration and measuring vital signs. […]

sample_smiles: CC1=NN(c2ccc3c(c2)CCCC3)C(=O)/C1=N\Nc1cccc(-c2ccc(C(=O)O)o2)c1O
reading_unit: L
Vd/F: 460

Numbers sourced from patent US20220071961A1.
